Exercise: state measured IC50 for each of the compounds provided.
TESTED_SYSTEM: phosphorylated EGFR (pEGFR) (Homo sapiens, UniProt P00533)
Construct: performed to measure phosphorylated EGFR levels using A431 cells (10% FBS); endogenous in cells
Sequence (P00533 25-1210): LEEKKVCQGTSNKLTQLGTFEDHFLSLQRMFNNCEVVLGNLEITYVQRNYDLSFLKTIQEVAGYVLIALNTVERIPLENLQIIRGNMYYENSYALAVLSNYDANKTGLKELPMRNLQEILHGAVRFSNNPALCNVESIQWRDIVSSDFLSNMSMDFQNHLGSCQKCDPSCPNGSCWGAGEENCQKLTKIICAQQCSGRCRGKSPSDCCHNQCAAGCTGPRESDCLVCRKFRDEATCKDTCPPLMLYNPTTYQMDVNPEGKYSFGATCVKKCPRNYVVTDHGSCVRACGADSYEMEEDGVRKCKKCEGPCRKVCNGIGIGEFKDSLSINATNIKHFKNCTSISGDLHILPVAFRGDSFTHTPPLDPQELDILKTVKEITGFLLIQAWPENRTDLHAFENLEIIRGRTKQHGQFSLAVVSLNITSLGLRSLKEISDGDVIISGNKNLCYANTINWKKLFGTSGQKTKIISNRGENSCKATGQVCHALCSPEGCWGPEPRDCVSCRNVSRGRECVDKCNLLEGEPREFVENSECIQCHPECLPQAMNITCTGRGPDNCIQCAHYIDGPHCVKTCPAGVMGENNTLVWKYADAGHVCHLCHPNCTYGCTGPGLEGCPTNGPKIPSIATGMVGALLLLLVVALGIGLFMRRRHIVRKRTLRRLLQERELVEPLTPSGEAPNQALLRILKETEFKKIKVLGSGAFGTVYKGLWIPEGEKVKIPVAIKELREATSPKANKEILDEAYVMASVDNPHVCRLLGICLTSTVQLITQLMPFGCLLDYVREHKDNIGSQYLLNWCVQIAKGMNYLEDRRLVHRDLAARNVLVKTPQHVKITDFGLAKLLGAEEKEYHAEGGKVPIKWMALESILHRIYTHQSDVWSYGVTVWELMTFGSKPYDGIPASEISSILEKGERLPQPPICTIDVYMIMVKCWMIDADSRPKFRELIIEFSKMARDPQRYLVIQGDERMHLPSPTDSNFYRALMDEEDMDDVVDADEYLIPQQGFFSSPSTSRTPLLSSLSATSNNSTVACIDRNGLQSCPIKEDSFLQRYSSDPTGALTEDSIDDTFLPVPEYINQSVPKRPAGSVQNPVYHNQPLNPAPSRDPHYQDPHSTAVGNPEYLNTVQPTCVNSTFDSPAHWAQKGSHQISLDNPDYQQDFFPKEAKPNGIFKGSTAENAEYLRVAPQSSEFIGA
PROCEDURE_TEXT: Detection of phosphorylated EGFR (pEGFR) in EGF-stimulated A431 cells
EXPERIMENTAL_CONDITIONS: A431 cells (10% FBS), 4 hours incubation, EGF 30 ng/mL 10 minutes, AlphaLISA
Give the value in nM but do not write nM after it.

Could you share what IC50 was measured for C=C1C(=O)N(c2ccc3ncnc(Nc4ccc(Oc5ccn6ncnc6c5)c(C)c4)c3c2)CC1COCCN(C)C (single isomer, unassigned) [Example S111, Enantiomer #2] , tested on phosphorylated EGFR (pEGFR) (Homo sapiens, UniProt P00533)?
33.7

Could you share what IC50 was measured for "Cc1cc(Nc2ncnc3cnc(N4CC/C(=C\CN(C)C)C4=O)cc23)ccc1Oc1cncc(F)c1" , tested on phosphorylated EGFR (pEGFR) (Homo sapiens, UniProt P00533)?
331

Could you share what IC50 was measured for C=C1C(=O)N(c2ccc3ncnc(Nc4ccc(Oc5ccn6ncnc6c5)c(C)c4)c3c2)C2CC12 (single isomer, unassigned) [Example S21, Enantiomer # 1] , tested on phosphorylated EGFR (pEGFR) (Homo sapiens, UniProt P00533)?
538

Could you share what IC50 was measured for "Cc1cc(Nc2ncnc3ccc(N4CC/C(=C\CN(C)C)C4=O)nc23)ccc1Oc1ccn2nnnc2c1" , tested on phosphorylated EGFR (pEGFR) (Homo sapiens, UniProt P00533)?
3410

Could you share what IC50 was measured for CC1CN(c2cc3c(Nc4ccc(Oc5ccc6c(c5)nnn6C)cc4)ncnc3cn2)C(=O)/C1=C/CN(C)C (single isomer, unassigned) [Compound 136] , tested on phosphorylated EGFR (pEGFR) (Homo sapiens, UniProt P00533)?
1670

Could you share what IC50 was measured for "C=C1C(=O)N(c2ccc3ncnc(Nc4ccc(Oc5ccc6c(c5)ncn6C)c(C)c4)c3c2)C[C@H]1C" , tested on phosphorylated EGFR (pEGFR) (Homo sapiens, UniProt P00533)?
1020

Could you share what IC50 was measured for "Cc1cc(Nc2ncnc3ccc(N4CC/C(=C\CN(C)C)C4=O)nc23)ccc1Oc1ccn(C(F)F)c(=O)c1" , tested on phosphorylated EGFR (pEGFR) (Homo sapiens, UniProt P00533)?
250

Could you share what IC50 was measured for "Cc1cc(Nc2ncnc3ccc(N4CC/C(=C\CN(C)C)C4=O)nc23)ccc1Oc1ccn2c(C)cnc2c1" , tested on phosphorylated EGFR (pEGFR) (Homo sapiens, UniProt P00533)?
1130

Could you share what IC50 was measured for "Cc1cc(Nc2ncnc3ccc(N4CC/C(=C\CN(C)C)C4=O)nc23)ccc1Oc1ccc2c(c1)nnn2C" , tested on phosphorylated EGFR (pEGFR) (Homo sapiens, UniProt P00533)?
973
